target: recombinant PKR1 (Homo sapiens (Human)); assay: Aequorin-based Ca2+ mobilization antagonist assay, CHO cells expressing PKR1; format: cell-based
measured_attribute: pKi
The read-out pKi is expressed as -log10 of concentration in moles per litre.

The cases that follow already have their pKi on record.
# compound, pKi
data = [
    ("CC(C)CN(Cc1cc(Cl)c2c(c1)OCCCO2)C(=O)[C@@H]1CCN(Cc2ccc(F)c(N)c2)C1", 7.62),
    ("CCc1c(C)cccc1CN1CC[C@@H](C(=O)N(Cc2cc(Cl)c3c(c2)OCCCO3)CC(C)C)C1", 6.65),
    ("CC(C)CN(Cc1cc(Cl)c2c(c1)OCCCO2)C(=O)C(C)CNCc1cccc2c1OCO2 (centres unmarked)", 7.35),
]

Let me check: CC(C)CN(Cc1cc(Cl)c2c(c1)OCCCO2)C(=O)[C@@H]1CCN(Cc2cccc(N)c2)C1 , system recombinant PKR1 (Homo sapiens (Human)), measured pKi is 6.88

Let me check: Cc1ccccc1CNCC(C)C(=O)N(Cc1cc(Cl)c2c(c1)OCCCO2)CC(C)C (racemic) , system recombinant PKR1 (Homo sapiens (Human)), measured pKi is 7.71

Let me check: Cc1ccc(C)c(CN2CCOC(C(=O)N(Cc3cc(Cl)c4c(c3)OCCCO4)CC(C)C)C2)c1 (racemic) , system recombinant PKR1 (Homo sapiens (Human)), measured pKi is 7.08

Let me check: CC(C)CN(Cc1cc(Cl)c2c(c1)OCCCO2)C(=O)[C@@H]1CCCN(Cc2cccc3[nH]ccc23)C1 , system recombinant PKR1 (Homo sapiens (Human)), measured pKi is 7.42

Let me check: Cc1cccc(CNCC(C)C(=O)N(Cc2cc(Cl)c3c(c2)OCCCO3)CC(C)C)c1C (racemic) , system recombinant PKR1 (Homo sapiens (Human)), measured pKi is 7.89

====

target: recombinant PKR1 (Homo sapiens (Human), UniProt Q8TCW9); assay: Aequorin-based Ca2+ mobilization antagonist assay, CHO cells expressing PKR1; format: cell-based
Sequence (Q8TCW9 whole entry, looked up): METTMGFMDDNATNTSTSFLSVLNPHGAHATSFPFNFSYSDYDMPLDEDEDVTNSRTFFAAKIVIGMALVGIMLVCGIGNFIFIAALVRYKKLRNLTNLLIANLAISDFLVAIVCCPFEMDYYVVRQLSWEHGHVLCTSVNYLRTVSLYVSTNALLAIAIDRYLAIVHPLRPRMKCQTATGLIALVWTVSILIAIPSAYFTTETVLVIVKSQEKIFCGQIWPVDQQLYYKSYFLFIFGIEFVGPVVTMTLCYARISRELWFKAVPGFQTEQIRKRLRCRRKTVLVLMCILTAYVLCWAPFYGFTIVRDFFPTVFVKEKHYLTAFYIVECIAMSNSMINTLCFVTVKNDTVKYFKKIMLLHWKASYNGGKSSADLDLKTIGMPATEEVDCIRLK
This section presents compounds with their documented Ki values.
Express the result in nM but write the number alone.

# compound, target_or_system, quantitative_readout
measured = [
    ("CC(C)CN(Cc1cc(Cl)c2c(c1)OCCCO2)C(=O)C(C)CNCc1cccc2c1OCCO2 (racemic)", "recombinant PKR1 (Homo sapiens (Human), UniProt Q8TCW9)", 58.4),
    ("CC(C)CN(Cc1cc(Cl)c2c(c1)OCCCO2)C(=O)C1CN(Cc2cccc3ccn(C)c23)CCO1 (racemic)", "recombinant PKR1 (Homo sapiens (Human), UniProt Q8TCW9)", 24.4),
]

Let me check: COc1ccccc1CN1CCC[C@@H](C(=O)N(Cc2cc(Cl)c3c(c2)OCCCO3)CC(C)C)C1 , system recombinant PKR1 (Homo sapiens (Human), UniProt Q8TCW9), measured Ki is 38.8

Let me check: Cc1ccccc1CN1CCOC(C(=O)N(Cc2cc(Cl)c3c(c2)OCCCO3)CC(C)C)C1 (racemic) , system recombinant PKR1 (Homo sapiens (Human), UniProt Q8TCW9), measured Ki is 37.4

Let me check: CC(C)CN(Cc1cc(Cl)c2c(c1)OCCCO2)C(=O)[C@@H]1CCCN(Cc2cccc3c2NCC3)C1 , system recombinant PKR1 (Homo sapiens (Human), UniProt Q8TCW9), measured Ki is 3.29

Let me check: CC(C)CN(Cc1cc(Cl)c2c(c1)CCCCO2)C(=O)C1CN(Cc2cccc3ccn(C)c23)CCO1 (racemic) , system recombinant PKR1 (Homo sapiens (Human), UniProt Q8TCW9), measured Ki is 9.94

Let me check: CC(C)CN(Cc1cc(Cl)c2c(c1)OCCCO2)C(=O)C(C)CNCc1cccc2ccn(C)c12 (centres unmarked) , system recombinant PKR1 (Homo sapiens (Human), UniProt Q8TCW9), measured Ki is 16.5

Let me check: COc1ccccc1CN1CC[C@@H](C(=O)N(Cc2ccc3c(c2)OCCCO3)CC(C)C)C1 , system recombinant PKR1 (Homo sapiens (Human), UniProt Q8TCW9), measured Ki is 12.8

Let me check: CC(C)CN(Cc1cc(Cl)c2c(c1)CCCCO2)C(=O)[C@@H]1CCN(Cc2cccc3c2ccn3C)C1 , system recombinant PKR1 (Homo sapiens (Human), UniProt Q8TCW9), measured Ki is 11.6
